Recorded values, source ChEMBL document CHEMBL4811289.

Listed next: entries and their corresponding IC50.
system: MCF7; experiment: Cytotoxicity against human MCF7 cells assessed as reduction in cell viability after 72 hrs by MTT assay; type: functional, cell-based; conditions: mcf7
Response body: numeric value in µM, unit text excluded.

COc1cc(C)c(-c2nc(C)cc3cc4c(c(O)c23)C(=O)c2c(cc(OC)c(Cl)c2OC)C4(C)C)c(OC)c1 ... 8.7

Turning to the following compound.
Here COc1cc(C)c(-c2nc(C)cc3cc4c(c(O)c23)C(=O)c2c(OC)cc(OC)cc2C4(C)C)c(OC)c1 was tested on MCF7, and its IC50 came to 11.2

###

Listed next: entries and their corresponding MIC.
system: Enterococcus faecium; experiment: Antibacterial activity against vancomycin-resistant Enterococcus faecium incubated for 6 to 8 hrs by MABA; format: functional; details: time 6-8 hrs
Response body: numeric value in µg/mL, unit text excluded.

Answered examples (3):
COc1cc(C)c(-c2cc(O)cc3cc4c(c(O)c23)C(=O)c2c(cc(O)c(Cl)c2O)C4(C)C)c(O)c1 ... 10
COc1cc(C)c(-c2cc(OC)cc3cc4c(c(O)c23)C(=O)c2c(O)cc(O)cc2C4(C)C)c(O)c1 ... 1.25
COc1cc(C)c(-c2cc(O)cc3cc4c(c(O)c23)C(=O)c2c(cc(OC)c(Cl)c2OC)C4(C)C)c(O)c1 ... 2.5

Entry COc1cc(-c2c(O)cc(O)c(Cl)c2C)c2c(O)c3c(cc2c1)C(C)(C)c1cc(OC)c(Cl)c(O)c1C3=O ; MIC = 5

Entry COc1cc(C)c(-c2cc(OC)cc3cc4c(c(O)c23)C(=O)c2c(cc(O)c(Cl)c2O)C4(C)C)c(O)c1 ; MIC = 5

Entry COc1cc(C)c(-c2cc(OC)c(Cl)c3cc4c(c(O)c23)C(=O)c2c(cc(O)c(Cl)c2O)C4(C)C)c(O)c1 ; MIC = 2.5
